System: PfSIP2 AP2 domain 1 (GST-tagged)
Experiment: gcPBM binding intensity (ln(normalized median fluorescence intensity)); higher = stronger DNA binding
Over roughly 25,000 sequences, “ln(normalized median fluorescence intensity)” has its median near 7.1; the highest 2% begin near 10. The sample as a whole holds a higher share of the highest values than the screen did.
Label NO if gcPBM binding intensity (ln) falls below 8; label YES in every other case.

Sample answers from the record:
- seq-string: "ATTATATATAAGAAGAGTACTGAATATGTGCAATAT [XGTACX_site4471]"
  label-value: "NO"
- seq-string: "ATATTTATTTTATAAAGTACTAAAAAATATATTATA [XGTACX_site8522]"
  label-value: "NO"
- seq-string: "ATATCGGGTGCATTAACACACATTTATTTGAATAAA [CACACA_site2350]"
  label-value: "YES"
- seq-string: "AATTTCTTTTTCGATATACACACTGTATGTGTCTAA [CACACA_site3975]"
  label-value: "NO"
- seq-string: "CACCCGCACGTATTTGCACACATTGCCACGTAATTA [CACACA_site5786]"
  label-value: "NO"
- seq-string: "ATGGTTATATTTGAAGTGCAAAAAAAAATATATGTA"
  label-value: "YES"

Query: gcPBM binding intensity (ln) >= 8 for ATGAACTAAACTAATCGTACAATAAGTTTTATTATA [XGTACX_site4891] ?
Reply: NO

Query: gcPBM binding intensity (ln) >= 8 for TAAAATAAATTGTGCACACATATTTATAAATATGAA [CACACA_site2331] ?
Reply: YES

Query: gcPBM binding intensity (ln) >= 8 for ATTATAAAAATATCGTGTACATATTTTTTAAAATAA [XGTACX_site5072] ?
Reply: NO

Query: gcPBM binding intensity (ln) >= 8 for TTCATTGTGTTAACGGTGCATATATTTTTTCACCGT [GTGCAC_site9464] ?
Reply: YES

Query: gcPBM binding intensity (ln) >= 8 for TAATAAGTACCTTTTGCATGTGGCACGCTTTTTTTT [TGCATGCA_site573] ?
Reply: NO

Query: gcPBM binding intensity (ln) >= 8 for CATAACATAAAATAGGTGCACAAAAATTGTAATTGA ?
Reply: YES

Query: gcPBM binding intensity (ln) >= 8 for AAAAAAAATGATAATATACACACTTATGGGAGAGCG [CACACA_site2516] ?
Reply: NO

Query: gcPBM binding intensity (ln) >= 8 for TTTATTAATAATTATACACACATATAAAATGAATAA [CACACA_site1359] ?
Reply: NO

Query: gcPBM binding intensity (ln) >= 8 for ATATTACTAATTAATGGTACACGTTATAATAAACTA [XGTACX_site7051] ?
Reply: NO

Query: gcPBM binding intensity (ln) >= 8 for TTTTGTTTTAATTTTATTTGATTTTATTTGATTTAT [CACACA_negctrl_site692] ?
Reply: NO

Query: gcPBM binding intensity (ln) >= 8 for AAAAAATAAGATTGTACACACATAAATTCTTTGTCA [CACACA_site2089] ?
Reply: NO

Query: gcPBM binding intensity (ln) >= 8 for ACATGAATATATACACGTACATATATACATATATAT [XGTACX_site5872] ?
Reply: NO

Query: gcPBM binding intensity (ln) >= 8 for TAAATATAGGGTAATAGTACATAATTATATTCTTTT [XGTACX_site3883] ?
Reply: NO

Query: gcPBM binding intensity (ln) >= 8 for AAATACTGATTTGGTTGTACATGTGCACTATATAAC [XGTACX_site3795] ?
Reply: YES

###

Reported gcPBM binding intensity (ln) is given for each of the following sequences.
Tested on: PfSIP2 AP2 domain 1 (GST-tagged)
Assay: gcPBM binding intensity (ln(normalized median fluorescence intensity)); higher = stronger DNA binding
The full ranking holds about 25,000 sequences; the median of “ln(normalized median fluorescence intensity)” is about 7.1, and the highest 2% start at about 10. This excerpt belongs to a sample that is enriched for the highest values.
Number only, no unit.

- seq-string: "TGATTCTAACTTATGGTGCAACATTATGGACACCGT"
  gcPBM binding intensity (ln): 10.7
- seq-string: "CGAACTGCACTTTTTAGTACTTAATAATTATTTTTT [XGTACX_site2446]"
  gcPBM binding intensity (ln): 8.47
- seq-string: "AAGTGTATATAAAAATGTACATATTTCGATTTAAAT [XGTACX_site4161]"
  gcPBM binding intensity (ln): 7.11

Query: Consider the sequence shown here: TATATAACATATGGGACACACATGCAACTGTTATAT [CACACA_site3792] What is its recorded gcPBM binding intensity (ln)?
Reply: 7.19

Query: Consider the sequence shown here: TTTTGTTTTTAGTTTATACACACCATATTAATATAA [CACACA_site3102] What is its recorded gcPBM binding intensity (ln)?
Reply: 7.27

Query: Consider the sequence shown here: TGAACACACGAGCACACACACACATCTATATTTATA [CACACA_site6607] What is its recorded gcPBM binding intensity (ln)?
Reply: 7.22

Query: Consider the sequence shown here: ATATATATATATATTACACACTTTTTCTTTTTTTTT [CACACA_site2780] What is its recorded gcPBM binding intensity (ln)?
Reply: 9.47

###

Reported gcPBM binding intensity (ln) is given for each of the following sequences.
Tested on: PfSIP2 AP2 domain 1 (GST-tagged)
Assay: gcPBM binding intensity (ln(normalized median fluorescence intensity)); higher = stronger DNA binding
The full ranking holds about 25,000 sequences; the median of “ln(normalized median fluorescence intensity)” is about 7.1, and the highest 2% start at about 10. For the sample, the highest values were picked, then their nearest neighbours and some sequences at random.
Number only, no unit.

The examples below pair each entry with its known result.
- seq-string: "TTAATAATTAATTATAGTACACATTTATATTAATAA [XGTACX_site190]"
  gcPBM binding intensity (ln): 7.03
- seq-string: "TTTATTTGTGCATATACACACTTAAATATGTTTATT [CACACA_site7772]"
  gcPBM binding intensity (ln): 7.65
- seq-string: "TGTGCACATAATTAGTGTACATTTTTTATTTAGACA [XGTACX_site317]"
  gcPBM binding intensity (ln): 10.9

Could you now consider this next sequence?
Query: Consider the sequence shown here: ATTAAAGAGAGACATCAACACACATACGTATGTATA [CACACA_site8393] What is its recorded gcPBM binding intensity (ln)?
Reply: 6.94

###

Test system: PfSIP2 AP2 domain 1 (GST-tagged)
Experiment: gcPBM binding intensity (ln(normalized median fluorescence intensity)); higher = stronger DNA binding
Whole data set: some 25,000 sequences, median “ln(normalized median fluorescence intensity)” near 7.1, cut for the highest 2% near 10. Many of the other results were omitted from the sample, so the highest values are more common in it than they were.
Reported gcPBM binding intensity (ln) is given for each of the following sequences.

- seq-string: "CATTAACATTTTATTACACACAATAATTTATAAGTA [CACACA_site4083]"
  gcPBM binding intensity (ln): 7.06
- seq-string: "AAGATCGCATGAAATGAACACACATAAAAAAAATAT [CACACA_site9353]"
  gcPBM binding intensity (ln): 7.05
- seq-string: "TATAAATATATGTATGCACACATTTTTTTTGGAAAA [CACACA_site1070]"
  gcPBM binding intensity (ln): 8.1
- seq-string: "ATTATCCATCAAAAGGTGCAAATTTTTAATTATAAA [GTGCAC_site9932]"
  gcPBM binding intensity (ln): 11.1

Query: Consider the sequence shown here: AATTTATAAATAATTAATTTGATAAATTATAAAGGG [GTGCAC_negctrl_site544] What is its recorded gcPBM binding intensity (ln)?
Reply: 7.02

Query: Consider the sequence shown here: AATTTTGGAACGTGCACACATATGTAATATATATAT [CACACA_site3067] What is its recorded gcPBM binding intensity (ln)?
Reply: 10.1

Query: Consider the sequence shown here: TGTATATTTTAGTGATGTACTAATATTATTACTAAT [XGTACX_site3952] What is its recorded gcPBM binding intensity (ln)?
Reply: 6.99

Query: Consider the sequence shown here: TATATATTATACACGTGTACACATTATAACAATATA [XGTACX_site7799] What is its recorded gcPBM binding intensity (ln)?
Reply: 7.4

Query: Consider the sequence shown here: TATAACACACAATGATGTACATTACATTATTTTTTA [XGTACX_site2076] What is its recorded gcPBM binding intensity (ln)?
Reply: 7.06

Query: Consider the sequence shown here: TAAAAAATTAATAAAGTGCATAAATATTACAATATT What is its recorded gcPBM binding intensity (ln)?
Reply: 8.14

Query: Consider the sequence shown here: ACATGTTCATAATTTTGTACATATTTTTATGAACAT [XGTACX_site3976] What is its recorded gcPBM binding intensity (ln)?
Reply: 7.12

Query: Consider the sequence shown here: TCGAATATCTTATAGGTGCATCATAAATACATATGT What is its recorded gcPBM binding intensity (ln)?
Reply: 10.8

Query: Consider the sequence shown here: TATATATTAATCAAAGTGCAATAATAAAATAAAAGT [GTGCAC_site9490] What is its recorded gcPBM binding intensity (ln)?
Reply: 8.38

Query: Consider the sequence shown here: ATATATATGTATATGTGTACTTATATTTGTCATTTT [XGTACX_site1317] What is its recorded gcPBM binding intensity (ln)?
Reply: 7.11

Query: Consider the sequence shown here: GTATATAATTTATGTGCACACACTCCTATTTTTAGC [CACACA_site49] What is its recorded gcPBM binding intensity (ln)?
Reply: 8.89

Query: Consider the sequence shown here: TGCATAATTAAAAATGGTACACTGTATTTATAATAT [XGTACX_site1575] What is its recorded gcPBM binding intensity (ln)?
Reply: 7.13
